- System Under Test: human ZAC (zinc activated ion channel) (Homo sapiens, UniProt Q401N2)
- Construct: expressed in transfected cells; host or cells: HEK (human embryonic kidney) cells, transient calcium phosphate transfection, vector pcDNA1.1/amp, GFP co-transfected on a separate plasmid (pCDM8)
- Sequence (Q401N2 26-412): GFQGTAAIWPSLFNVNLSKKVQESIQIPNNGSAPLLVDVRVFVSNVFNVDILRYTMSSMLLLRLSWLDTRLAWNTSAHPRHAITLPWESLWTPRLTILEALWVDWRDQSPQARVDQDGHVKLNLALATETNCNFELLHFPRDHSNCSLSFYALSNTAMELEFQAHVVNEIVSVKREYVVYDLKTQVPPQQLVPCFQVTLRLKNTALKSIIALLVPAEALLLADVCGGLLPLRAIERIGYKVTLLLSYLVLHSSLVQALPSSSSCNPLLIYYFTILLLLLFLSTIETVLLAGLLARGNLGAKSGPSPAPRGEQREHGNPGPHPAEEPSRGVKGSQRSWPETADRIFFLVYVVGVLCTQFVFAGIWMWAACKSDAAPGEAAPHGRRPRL
- Experiment: Whole cell patch-clamp recording of currents from HEK cells transfected with human ZAC
- Assay type: cell-based
- Test Parameters: HEK cells expressing hZAC, whole cell patch-clamp
Measured Metric: Effect of antagonists on ZAC (inhibition)

[
  {
    "Molecule": "CNC1(C)C2CCC(C2)C1(C)C (stereo not shown) [mecamylamine]",
    "System Under Test": "human ZAC (zinc activated ion channel) (Homo sapiens, UniProt Q401N2)",
    "Result": "no effect"
  },
  {
    "Molecule": "Cc1nccn1CC1CCc2c(c3ccccc3n2C)C1=O (stereo not shown) [ondansetron]",
    "System Under Test": "human ZAC (zinc activated ion channel) (Homo sapiens, UniProt Q401N2)",
    "Result": "no effect"
  },
  {
    "Molecule": "C[N+]1(C)CCc2cc3c(cc2[C@H]1[C@@H]1OC(=O)c2c1ccc1c2OCO1)OCO3.[I-] [bicuculline methiodide]",
    "System Under Test": "human ZAC (zinc activated ion channel) (Homo sapiens, UniProt Q401N2)",
    "Result": "no effect"
  }
]

###

- System Under Test: human ZAC (zinc activated ion channel) (Homo sapiens, UniProt Q401N2)
- Construct: expressed in transfected cells; host or cells: HEK (human embryonic kidney) cells, transient calcium phosphate transfection, vector pcDNA1.1/amp, GFP co-transfected on a separate plasmid (pCDM8)
- Sequence (Q401N2 26-412): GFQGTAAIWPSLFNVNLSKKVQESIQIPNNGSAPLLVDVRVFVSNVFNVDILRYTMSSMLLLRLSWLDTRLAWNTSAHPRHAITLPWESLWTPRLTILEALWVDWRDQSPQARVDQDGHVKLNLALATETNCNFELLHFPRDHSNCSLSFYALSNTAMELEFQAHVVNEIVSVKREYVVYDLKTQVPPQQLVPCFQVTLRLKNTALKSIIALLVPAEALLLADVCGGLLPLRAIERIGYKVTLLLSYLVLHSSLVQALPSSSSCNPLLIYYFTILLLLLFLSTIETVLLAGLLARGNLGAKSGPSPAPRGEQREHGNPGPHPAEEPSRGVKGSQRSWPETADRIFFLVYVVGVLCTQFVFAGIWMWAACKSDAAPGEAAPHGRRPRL
- Experiment: Whole cell patch-clamp recording of currents from HEK cells transfected with human ZAC
- Type: cell-based
- Test Parameters: HEK cells expressing hZAC, whole cell patch-clamp, clamped at −60 mV, 22-24° C.
Measured Metric: Activation of ZAC

[
  {
    "Molecule": "CC(=O)[C@H]1CC[C@H]2[C@@H]3CC[C@H]4C[C@H](O)CC[C@]4(C)[C@H]3CC[C@]12C [allopregnanolone]",
    "System Under Test": "human ZAC (zinc activated ion channel) (Homo sapiens, UniProt Q401N2)",
    "Result": "did not activate"
  },
  {
    "Molecule": "NCCc1ccc(O)c(O)c1 [dopamine]",
    "System Under Test": "human ZAC (zinc activated ion channel) (Homo sapiens, UniProt Q401N2)",
    "Result": "did not activate"
  },
  {
    "Molecule": "CC[C@H](C)[C@@H]1NC(=O)[C@H](Cc2ccc(O)cc2)NC(=O)[C@@H](N)CSSC[C@@H](C(=O)N2CCC[C@H]2C(=O)N[C@@H](CC(C)C)C(=O)NCC(N)=O)NC(=O)[C@H](CC(N)=O)NC(=O)[C@H](CCC(N)=O)NC1=O [oxytocin]",
    "System Under Test": "human ZAC (zinc activated ion channel) (Homo sapiens, UniProt Q401N2)",
    "Result": "did not activate"
  }
]
